# target_system: GSK3B (Homo sapiens, UniProt P49841)
# Sequence (P49841 whole entry): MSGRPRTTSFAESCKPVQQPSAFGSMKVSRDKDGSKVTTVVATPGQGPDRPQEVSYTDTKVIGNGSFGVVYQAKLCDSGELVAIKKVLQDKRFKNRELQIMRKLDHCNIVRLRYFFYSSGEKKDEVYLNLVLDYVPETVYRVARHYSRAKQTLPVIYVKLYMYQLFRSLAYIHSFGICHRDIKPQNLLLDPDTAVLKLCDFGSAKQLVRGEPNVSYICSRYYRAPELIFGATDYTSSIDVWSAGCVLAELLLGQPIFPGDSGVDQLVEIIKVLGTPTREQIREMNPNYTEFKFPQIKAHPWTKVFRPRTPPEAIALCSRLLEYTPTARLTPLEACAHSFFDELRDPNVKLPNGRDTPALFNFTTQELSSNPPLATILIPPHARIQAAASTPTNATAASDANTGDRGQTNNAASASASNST
# experiment_summary: NanoBRET cellular target engagement assay, Nanoluc-GSK3B in HEK293 cells
# Assay type: cell-based
# Set-up: expressed in transfected cells
# condition_notes: NanoBRET GSK3β IC50, HEK293 cells, tracer K-8, 2 hours, 37° C
pIC50: −log10 of the molar value.
quantity_name: pIC50

CCNCc1cncc(NC(=O)c2c(N)ncn(-c3c(Cl)cc(C(F)(F)F)cc3Cl)c2=O)c1    6.48
CO[C@H](C)c1cc(C)c(-n2cnc(N)c(C(=O)Nc3cncc([C@@H](C)N)c3)c2=O)c(C)c1 (single isomer, unassigned) [Example 175]    6.24
CCc1cc(C)c(-n2cnc(N)c(C(=O)Nc3cncc(C4CCCCCN4)c3)c2=O)c(C)c1 (single isomer, unassigned)    6.46
COc1cc(Cl)c(-n2cnc(N)c(C(=O)Nc3cnnc(C4CCCCN4)c3)c2=O)c(Cl)c1 (single isomer, unassigned)    7.01
CCNCc1cncc(NC(=O)c2c(N)ncn(-c3c(Cl)cc(C(F)F)cc3Cl)c2=O)c1    6.64

I. CCOc1cc(Cl)c(-n2cnc(N)c(C(=O)Nc3cncc(CNCCS(C)(=O)=O)c3)c2=O)c(Cl)c1
II. Cc1cc(C(C)(F)F)cc(C)c1-n1cnc(N)c(C(=O)Nc2cncc([C@H]3CCCCN3)c2)c1=O
III. C[C@@H](N)c1cncc(NC(=O)c2c(N)ncn(-c3c(Cl)cc(Cl)cc3Cl)c2=O)c1 (single isomer, unassigned)
IV. CCOc1cc(Cl)c(-n2cnc(N)c(C(=O)Nc3cncc(C(C)N)c3)c2=O)c(Cl)c1 (single isomer, unassigned) [Example 137]
Request: Please order the records by their reported pIC50, lowest number first. List labels; respect the requested ordering.
Response: I, III, II, IV
(I: 5.95, III: 6.36, II: 6.82, IV: 7.06)

A. COCC[C@@H](N)c1cncc(NC(=O)c2c(N)ncn(-c3c(Cl)cccc3Cl)c2=O)c1 (single isomer, unassigned)
B. [2H]C([2H])([2H])NC(C)c1cncc(NC(=O)c2c(N)ncn(-c3c(C)cc(OC)cc3Cl)c2=O)c1 (single isomer, unassigned)
C. CNC(C)c1cncc(NC(=O)c2c(N)ncn(-c3c(Cl)cc(OC)cc3Cl)c2=O)c1 (single isomer, unassigned) [Example 19]
Request: Put the items in sequence by pIC50, from largest down. List labels; respect the requested ordering.
Response: B, C, A
